Sourced from the kinase profiling compilation of Christmann-Franck et al. (2016)

In this section we review reported kinase still bound, per cent of control values for a set of compounds.
- STUDY_SYSTEM: UniProt:O14976
- Sequence (O14976 whole entry, looked up): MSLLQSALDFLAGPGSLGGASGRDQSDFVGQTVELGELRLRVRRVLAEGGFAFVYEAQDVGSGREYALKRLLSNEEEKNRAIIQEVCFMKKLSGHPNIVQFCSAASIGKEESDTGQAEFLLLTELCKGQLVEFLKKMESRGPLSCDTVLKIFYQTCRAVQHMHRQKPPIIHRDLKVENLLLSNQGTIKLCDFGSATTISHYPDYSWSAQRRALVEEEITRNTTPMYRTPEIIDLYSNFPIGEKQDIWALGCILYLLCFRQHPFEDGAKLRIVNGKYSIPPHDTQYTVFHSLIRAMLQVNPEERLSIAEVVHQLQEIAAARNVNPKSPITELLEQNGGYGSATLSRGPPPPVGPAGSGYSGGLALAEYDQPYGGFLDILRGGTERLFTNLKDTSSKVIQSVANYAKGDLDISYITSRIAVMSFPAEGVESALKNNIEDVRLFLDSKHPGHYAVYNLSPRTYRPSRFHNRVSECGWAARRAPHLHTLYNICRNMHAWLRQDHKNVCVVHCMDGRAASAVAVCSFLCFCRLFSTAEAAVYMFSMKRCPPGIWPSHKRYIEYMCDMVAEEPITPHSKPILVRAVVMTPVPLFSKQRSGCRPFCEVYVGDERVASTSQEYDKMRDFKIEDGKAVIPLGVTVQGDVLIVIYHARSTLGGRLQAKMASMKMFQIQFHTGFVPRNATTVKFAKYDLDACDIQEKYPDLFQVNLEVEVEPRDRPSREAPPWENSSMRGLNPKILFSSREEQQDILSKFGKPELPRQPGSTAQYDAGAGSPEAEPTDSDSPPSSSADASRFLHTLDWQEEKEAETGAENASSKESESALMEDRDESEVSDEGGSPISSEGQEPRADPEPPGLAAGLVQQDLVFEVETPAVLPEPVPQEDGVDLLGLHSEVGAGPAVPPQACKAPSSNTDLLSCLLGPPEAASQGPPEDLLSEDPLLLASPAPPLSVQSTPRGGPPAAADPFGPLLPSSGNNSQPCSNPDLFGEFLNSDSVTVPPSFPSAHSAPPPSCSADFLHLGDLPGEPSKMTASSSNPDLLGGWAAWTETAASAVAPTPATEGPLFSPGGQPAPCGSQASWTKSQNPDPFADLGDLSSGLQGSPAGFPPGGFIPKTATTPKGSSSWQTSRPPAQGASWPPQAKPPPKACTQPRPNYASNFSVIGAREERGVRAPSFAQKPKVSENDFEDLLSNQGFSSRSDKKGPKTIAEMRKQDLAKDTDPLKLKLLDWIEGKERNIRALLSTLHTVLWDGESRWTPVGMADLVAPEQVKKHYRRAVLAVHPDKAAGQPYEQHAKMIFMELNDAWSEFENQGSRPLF
- PROTOCOL_DESCRIPTION: KINOMEscan competition binding
- ASSAY_SETUP: compound 10.0 µM
Could you give me the number in %? Just the number is fine.

Before answering, review these 4 worked examples.
                                 smiles_str                          outcome_measure  recorded_result
0  O=C(NC1CC1)c1cccc(-c2ccc3c(NC(=O)C4CC4)n[nH]c3c2)c1  kinase still bound, per cent of control               49
1  CC[C@@H]1C(=O)N(C)c2cnc(Nc3ccc(C(=O)NC4CCN(C)CC4)cc3OC)nc2N1C1CCCC1  kinase still bound, per cent of control              1.6
2  Cc1cc([C@@H](C)Nc2ccccc2C(=O)O)c2nc(N3CCOCC3)cc(=O)n2c1  kinase still bound, per cent of control               75
3  CCC(=O)N1CCN(c2ccc(-n3c(=O)ccc4cnc5ccc(-c6cnc7ccccc7c6)cc5c43)cc2C(F)(F)F)CC1  kinase still bound, per cent of control               57

Please look at the following compound next.
Per the reported UniProt:O14976 data, `O=C(NOC[C@H](O)CO)c1ccc(F)c(F)c1Nc1ccc(I)cc1F` has kinase still bound, per cent of control of 71

====

- STUDY_SYSTEM: UniProt P45984
- Sequence (P45984 whole entry, looked up): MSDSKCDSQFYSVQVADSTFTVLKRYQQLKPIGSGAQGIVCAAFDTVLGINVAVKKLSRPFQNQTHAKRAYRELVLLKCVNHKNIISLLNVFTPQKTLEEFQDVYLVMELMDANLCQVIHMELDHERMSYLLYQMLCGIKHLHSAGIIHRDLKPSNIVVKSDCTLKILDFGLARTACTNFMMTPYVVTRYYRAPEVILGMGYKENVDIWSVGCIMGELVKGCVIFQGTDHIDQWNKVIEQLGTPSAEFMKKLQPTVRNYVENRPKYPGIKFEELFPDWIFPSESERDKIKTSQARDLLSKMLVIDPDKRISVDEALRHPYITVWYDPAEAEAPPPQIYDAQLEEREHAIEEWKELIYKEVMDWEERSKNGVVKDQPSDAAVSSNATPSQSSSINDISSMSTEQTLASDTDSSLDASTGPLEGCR
- PROTOCOL_DESCRIPTION: KINOMEscan competition binding
- ASSAY_SETUP: compound 10.0 µM
OUTCOME_MEASURE: kinase still bound, per cent of control

>>> df
                                 smiles_str                          outcome_measure  recorded_result
0  COc1cc(C(=O)NC2CCN(C)CC2)ccc1Nc1ncc2c(n1)N(C1CCCC1)CCC(=O)N2C(C)C  kinase still bound, per cent of control             100%
1  CCCS(=O)(=O)Nc1ccc(F)c(C(=O)c2c[nH]c3ncc(-c4ccc(Cl)cc4)cc23)c1F  kinase still bound, per cent of control              50%
2  O=C1Nc2ccc(I)cc2/C1=C/c1cc(Br)c(O)c(Br)c1  kinase still bound, per cent of control              72%
3  Cc1ccc(C(=O)Nc2cccc(C(F)(F)F)c2)cc1Nc1cncc(C(N)=O)c1  kinase still bound, per cent of control             100%
4   OCCCNc1cc(-c2ccnc(Nc3cccc(Cl)c3)n2)ccn1  kinase still bound, per cent of control             100%

Please look at the following molecule next.
Consider `CC[C@@H]1C(=O)N(C)c2cnc(Nc3ccc(C(=O)NC4CCN(C)CC4)cc3OC)nc2N1C1CCCC1` . Its measured kinase still bound, per cent of control is 100%

====

- STUDY_SYSTEM: MAP3K2 (human)
- PROTOCOL_DESCRIPTION: KINOMEscan competition binding
- ASSAY_SETUP: compound 10.0 µM
In this section we review reported kinase still bound, per cent of control values for a set of compounds.
Write the numeric value and append its unit.

Consider `COc1cc(C(=O)NC2CCN(C)CC2)ccc1Nc1ncc2c(n1)N(C1CCCC1)CCC(=O)N2C(C)C` . Its measured kinase still bound, per cent of control is 100%
